- targetOrTestSystem: BRD2-BD2 (Homo sapiens (Human))
- Sequence (P25440 344-453): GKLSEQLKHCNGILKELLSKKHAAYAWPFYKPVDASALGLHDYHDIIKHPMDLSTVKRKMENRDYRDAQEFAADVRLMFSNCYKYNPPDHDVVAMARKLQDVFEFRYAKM
- experimentalDetails: competitive TR-FRET assay, BET-BD with acetylated peptide ligand
- Format: binding
- details: Table 2, ratio BRD2-BD1/BRD2-BD2
- Method: Inhibitor potency was determined using a competitive TR-FRET assay as detailed herein, measuring interaction of the respective BET-BD with an acetylated peptide ligand (Table 2).
BD1/BD2 for assorted molecules

For orientation, consider the following solved cases.
cpdsmiles=CC(=O)N1c2ccc(-c3cccs3)cc2[C@H](NC(=O)OC(C)C)C[C@@H]1C measurementtype=BD1/BD2 observedmeasurement=5
cpdsmiles=CC(=O)N1c2ccc(-c3ccoc3)cc2[C@H](NC(=O)OC(C)C)C[C@@H]1C measurementtype=BD1/BD2 observedmeasurement=5
cpdsmiles=CC(=O)N1c2ccc(-c3ccsc3)cc2[C@H](NC(=O)OC(C)C)C[C@@H]1C measurementtype=BD1/BD2 observedmeasurement=7

Query molecule follows.
Q: I would be grateful if you could share the reported BD1/BD2 for CC(=O)N1c2ccc(-c3cc[nH]c3)cc2[C@H](NC(=O)OC(C)C)C[C@@H]1C .
A: 5
